meta.source: ChEMBL document CHEMBL4811241

Assay: Cytotoxicity against human MRC-5 SV2 cells assessed as reduction in cell growth measured after 3 days by resazurin dye based fluorometric analysis
Conditions: time 3 day
Reported CC50 at 72 h values for the following compounds.
quantity.kind: CC50 at 72 h

item_smiles=Nc1ncnc2c1c(N1CCCC1)nn2[C@@H]1O[C@H](CO)[C@@H](O)[C@H]1O quantity_kind="CC50 at 72 h" result="> 64 µM"
item_smiles=O=c1[nH]cnc2c1cnn2[C@@H]1O[C@H](CO)[C@@H](O)[C@H]1O quantity_kind="CC50 at 72 h" result="> 64 µM"
item_smiles=Nc1ncnc2c1c(-c1ccc(Cl)c(C(F)(F)F)c1)nn2[C@@H]1O[C@H](CO)[C@@H](O)[C@H]1O quantity_kind="CC50 at 72 h" result="> 64 µM"
item_smiles=Nc1ncnc2c1c(-c1ccc(Cl)cc1Cl)nn2[C@@H]1O[C@H](CO)[C@@H](O)[C@H]1O quantity_kind="CC50 at 72 h" result="> 64 µM"
item_smiles=Nc1ncnc2c1c(-c1cccs1)nn2[C@@H]1O[C@H](CO)[C@@H](O)[C@H]1O quantity_kind="CC50 at 72 h" result="32 µM"

----------
System: Leishmania infantum
Experiment: Antileishmanial activity against amastigote form of Leishmania infantum MHOM/MA(BE)/67 infected in Swiss mouse peritoneal macrophages assessed as reduction in parasite growth treated at 2 hrs post-infection and measured after 5 days by Giemsa staining based microscopic analysis
Assay type: functional, organism-based
Settings: MHOM/MA(BE)/67, Peritoneal macrophage
Reported IC50 by item:
quantity.kind: IC50 (µM)

item_smiles=Nc1ncnc2c1c(Br)nn2[C@@H]1O[C@H](CO)[C@@H](F)[C@H]1O unit_text=µM comparison_symbol== measured_number=0.08
item_smiles=Nc1ncnc2c1c(Oc1ccccc1)nn2[C@@H]1O[C@H](CO)[C@@H](O)[C@H]1O unit_text=µM comparison_symbol== measured_number=32
item_smiles=O=c1[nH]cnc2c1cnn2[C@@H]1O[C@H](CO)[C@@H](F)[C@H]1O unit_text=µM comparison_symbol=> measured_number=64
item_smiles=O=c1[nH]cnc2c1c(Br)nn2[C@@H]1O[C@H](CO)C[C@H]1O unit_text=µM comparison_symbol=> measured_number=64
item_smiles=NC(=O)c1nn([C@@H]2O[C@H](CO)[C@@H](O)[C@H]2O)c2ncnc(N)c12 unit_text=µM comparison_symbol== measured_number=8.11

----------
Target: UGT (Homo sapiens, UniProt O60656+O75310+O75795+P06133+P0DTE4+P0DTE5+P16662+P19224+P22309+P22310+P35503+P35504+P36537+P54855+Q6UWM9+Q9BY64+Q9HAW7+Q9HAW8+Q9HAW9)
Test: Metabolic stability of the compound in human liver microsomes S9 fraction assessed as UGT-mediated metabolism by measuring parent compound remaining at 5 uM measured after 60 mins in presence of UDPGA by UPLC-MS analysis
Assay type: ADME, subcellular
Settings: read-out: Stabilty
quantity.kind: remaining at 1 h, 5 µM (%)

item_smiles=Nc1ncnc2c1c(-c1ccc(Cl)cc1)nn2[C@@H]1O[C@H](CO)[C@@H](O)[C@H]1O unit_text=% measured_number=104

----------
Molecular target: UGT (Homo sapiens, UniProt O60656+O75310+O75795+P06133+P0DTE4+P0DTE5+P16662+P19224+P22309+P22310+P35503+P35504+P36537+P54855+Q6UWM9+Q9BY64+Q9HAW7+Q9HAW8+Q9HAW9)
Assay: Metabolic stability of the compound in human liver microsomes S9 fraction assessed as UGT-mediated metabolism by measuring parent compound remaining at 5 uM measured after 30 mins in presence of UDPGA by UPLC-MS analysis
Type: ADME, subcellular
Settings: read-out: Stabilty
quantity.kind: remaining at 0.5 h, 5 µM (%)

item_smiles=Nc1ncnc2c1c(-c1ccc(Cl)cc1)nn2[C@@H]1O[C@H](CO)[C@@H](O)[C@H]1O measured_number=106
